# Tested on: A. baumannii NMI 3658/17
# Type: cell-based, Acinetobacter baumannii
# assay-conditions: NMI 3658/17, 20 h
property-name: MIC, A. baumannii NMI 3658/17 (µg/mL)
Note: unit µg/mL is implicit; provide only the numeric part.

NCCCC[C@H](NC(=O)CCN(Cc1ccc(F)cc1)C(=O)[C@H](CCCCN)NC(=O)CCN(Cc1ccc(F)cc1)C(=O)[C@H](CCCCN)NC(=O)COCCOCCOCCNC(=O)CCN(Cc1ccc(F)cc1)C(=O)[C@H](CCCCN)NC(=O)CCN(Cc1ccc(F)cc1)C(=O)[C@H](CCCCN)NC(=O)CCN(Cc1ccc(F)cc1)C(=O)[C@@H](N)CCCCN)C(=O)N(CCC(N)=O)Cc1ccc(F)cc1 [Compound 8, H-[X]3-sPEG3-[X]3-NH2]; 4

Param item = NCCCC[C@H](NC(=O)CCN(Cc1ccc(F)cc1)C(=O)[C@H](CCCCN)NC(=O)CCN(Cc1ccc(F)cc1)C(=O)[C@H](CCCCN)NC(=O)CCN(Cc1ccc(F)cc1)C(=O)[C@H](CCCCN)NC(=O)CCN(Cc1ccc(F)cc1)C(=O)[C@H](CCCCN)NC(=O)CCN(Cc1ccc(F)cc1)C(=O)[C@@H](N)CCCCN)C(=O)N(CCC(N)=O)Cc1ccc(F)cc1 [Compound 1, H-[Lys-βNPhe(4-F)]6-NH2] ; retrieve measured MIC, A. baumannii NMI 3658/17.
4

----------
Catalogue of viability at 48 h readings, one per entry.
# assay-notes: Antiproliferative activity on HepG2 cell line (MTT assay)
# Assay type: cell-based
# assay-conditions: HepG2 cells; at 1280 µg/mL, value in parenthesis; read-out: HepG2 cell viability at highest concentration tested
# Procedure: Effect of compounds on mammalian cell viability was estimated on the HepG2 cell line ATCC HB-8065. In brief, HepG2 cells were seeded into flat-bottomed 96-well plates at a concentration of 5000 cells per well. […] Absorbance of MTT was measured using the spectrophotometer TECAN Infinite M1000 at 540 nm. The relative viability was calculated by using the formula: ODtreated cells × 100/ODcontrol cells. The IC50 values are calculated by using the program Graph Pad Prism® 5.0. […]
// units = %; emit number, no label

Worked examples, 2 compounds total:
NCCCC[C@H](NC(=O)CCN(Cc1ccc(F)cc1)C(=O)[C@H](CCCCN)NC(=O)CCN(Cc1ccc(F)cc1)C(=O)[C@H](CCCCN)NC(=O)CCOCCOCCOCCOCCOCCOCCNC(=O)CCN(Cc1ccc(F)cc1)C(=O)[C@H](CCCCN)NC(=O)CCN(Cc1ccc(F)cc1)C(=O)[C@H](CCCCN)NC(=O)CCN(Cc1ccc(F)cc1)C(=O)[C@@H](N)CCCCN)C(=O)N(CCC(N)=O)Cc1ccc(F)cc1 [Compound 10, H-[X]3-sPEG6-[X]3-NH2]; 27
NCCCC[C@H](NC(=O)CCN(Cc1ccc(F)cc1)C(=O)[C@H](CCCCN)NC(=O)CCN(Cc1ccc(F)cc1)C(=O)[C@H](CCCCN)NC(=O)CCOCCOCCOCCOCCN)C(=O)N(CCC(=O)NCCOCCOCCOCCOCCC(=O)N[C@@H](CCCCN)C(=O)N(CCC(=O)N[C@@H](CCCCN)C(=O)N(CCC(=O)N[C@@H](CCCCN)C(=O)N(CCC(=O)NCCOCCOCCOCCOCCC(N)=O)Cc1ccc(F)cc1)Cc1ccc(F)cc1)Cc1ccc(F)cc1)Cc1ccc(F)cc1 [Compound 14, H-sPEG4-[X]3-sPEG4-[X]3-sPEG4-NH2]; 44

Turning now to a further record.
Quick check: viability at 48 h of NCCCC[C@H](NC(=O)CCN(Cc1ccc(F)cc1)C(=O)[C@H](CCCCN)NC(=O)CCN(Cc1ccc(F)cc1)C(=O)[C@H](CCCCN)NC(=O)COCCNC(=O)CCN(Cc1ccc(F)cc1)C(=O)[C@H](CCCCN)NC(=O)CCN(Cc1ccc(F)cc1)C(=O)[C@H](CCCCN)NC(=O)CCN(Cc1ccc(F)cc1)C(=O)[C@@H](N)CCCCN)C(=O)N(CCC(N)=O)Cc1ccc(F)cc1 [Compound 6, H-[X]3-sPEG1-[X]3-NH2] ?
6
